Species on record: Cavia porcellus
Assay: Calcium channel agonist activity in guinea pig left atrium (GPLA) at 10e-9 M
Conditions: Cardiac atrium
endpoint-label: pEC50
Here pEC50 is given on a logarithmic scale as minus log10 of the concentration in mol/L.

Challenge: Identify the reported pEC50 for the following entry. CC1=NC(C)=C([N+](=O)[O-])C(c2ccccn2)/C1=C(\O)OC(C)C (stereo unspecified)
Response given: 8.35

----------
Species on record: Cavia porcellus
Assay: Calcium channel antagonist activity in guinea pig ileum longitudinal smooth muscle (GPILSM) at 10e-7 M
Format: functional, organism-based
endpoint-label: IC50 (nM)
# unit: nM | format: bare number

Challenge: Identify the reported IC50 for the following entry. CC1=NC(C)=C([N+](=O)[O-])C(c2ccccn2)/C1=C(\O)OC(C)C (stereo unspecified)
Response given: 207
